experimentalSystem: human cerebellum TSPO, HAB genotype (Homo sapiens, UniProt P30536)
Sequence (P30536 whole entry): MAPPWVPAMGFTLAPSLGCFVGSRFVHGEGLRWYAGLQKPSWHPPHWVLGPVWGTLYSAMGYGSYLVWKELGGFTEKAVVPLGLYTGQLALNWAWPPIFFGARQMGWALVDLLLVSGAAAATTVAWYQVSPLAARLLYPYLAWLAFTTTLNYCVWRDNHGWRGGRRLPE
experimentDescription: [3H]PK11195 binding assay, human cerebellum homogenates, HAB genotype
details: lipE = pKi – logD
This listing pairs molecules with measured lipE HAB.
assayReadout: lipE HAB

chemicalstructure=CC[C@@H](C)N(C)C(=O)c1nc(-c2ccccc2F)c2ccccc2n1 assayreadout="lipE HAB" recordedmeasurement=5.01
chemicalstructure=CC[C@@H](C)N(C)C(=O)c1nc(-c2cccc(F)c2)c2ccccc2n1 assayreadout="lipE HAB" recordedmeasurement=4.95
chemicalstructure=CC[C@@H](C)N(C)C(=O)c1nc(-c2ccc(C(F)(F)F)cc2)c2ccccc2n1 assayreadout="lipE HAB" recordedmeasurement=4.37
chemicalstructure=CC[C@@H](C)N(C)C(=O)c1nc(-c2ccc(F)cc2)c2ccccc2n1 assayreadout="lipE HAB" recordedmeasurement=4.81
chemicalstructure=CC[C@@H](C)N(C)C(=O)c1nc(-c2cccc(C(F)(F)F)c2)c2ccccc2n1 assayreadout="lipE HAB" recordedmeasurement=4.02
